Molecular target: bdSUMO^Mut1-MBP fusion protein
measured-attribute: cleavage of the SUMO fusion protein

Item under review: bdSENP1 from B. distachyon (protein) PFVPLTDEDEDNVRHALGGRKRSETLSVHEASNIVITREILQCLNDKEWLNDEVINLYLELLKERELREPNKFLKCHFFNTFFYKKLINGGYDYKSVRRWTTKRKLGYNLIDCDKIFVPIHKDVHWCLAVINIKEKKFQYLDSLGYMDMKALRILAKYLVDEVKDKSGKQIDVHAWKQEGVQNLPLQENGWDCGMFMLKYIDFYSRDMELVFGQKHMSYFRRRTAKEILDLKAG . Reported cleavage of the SUMO fusion protein?
< 25 % cleavage

// lookup cleavage of the SUMO fusion protein for bdSENP1^Muti (protein) PFVPLTDEDEDNVRHALGGRKKSETLSVHEASHIVITREILQCLNDKEWLNDEVINLYLELLKERELREPNKFLKCHFFNTFFYKKLINGGYDYKSVREWTTRRKLGYNLIDCDKIFVPIHKDVHWCLAVINIKEKKFQYLDSLGYMDMKALRILAKYLVDEVKDKSGKQIDVHAWKQEGVQNLPLQENGWDCGMFMLKYIDFYSRDMELVFGQKHMSYFRRRTAKEILDLKAG
100 % cleavage
